System: Felis catus
Test: Fall of blood pressure in anaesthetized cat at a dose of 5 mg/kg intravenously
Assay type: functional
Details: route intravenous
Classify as follows. Reported Decrease in blood pressure greater than or equal to 60 mmHg: condition met. Reported Decrease in blood pressure below: condition not met.

Completed entries (count: 4):
1. CC(C)(C)NCC(O)CO/N=C1\CCCOc2ccc3ccccc3c21 (configuration not stated)    condition not met
2. CC(C)NCC(O)COc1cccc2ccccc12 (configuration not stated)    condition not met
3. CC(C)NCC(O)CO/N=C1\CCCOc2ccc3ccccc3c21 (configuration not stated)    condition met
4. CC(C)(C)NCC(O)CO/N=C1\CCCOc2c1ccc1ccccc21 (configuration not stated)    condition met

Check this molecule for Decrease in blood pressure at or above 60 mmHg: CCCNCC(O)CO/N=C1\CCCOc2ccc3ccccc3c21 (configuration not stated) condition not met

Check this molecule for Decrease in blood pressure at or above 60 mmHg: CC(C)NCC(O)CO/N=C1\CCCOc2c1ccc1ccccc21 (configuration not stated) condition met
